B1: SAM and SH3 domain-containing protein 1, residues 630 to 700; numbered along this chain, O94885 (parent)
chain: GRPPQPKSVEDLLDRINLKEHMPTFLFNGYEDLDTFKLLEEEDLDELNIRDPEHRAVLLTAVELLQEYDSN

- Variants of: B1
- method-description: abundance fitness (aPCA) (normalised: wild type 0, dead -1); higher = more abundant; growth selection in yeast, the domain comes from the species named
- condition: Homo sapiens
quantity-kind: abundance fitness
Answers are plain numbers.

Guide cases for abundance fitness, answers given:
> print(dat)
   mutant      quantity.kind  value.measured
1    H21E  abundance fitness          -0.689
2    L39M  abundance fitness          -0.319
3    T24N  abundance fitness          -0.314
4    L39H  abundance fitness          -0.812
5    E53V  abundance fitness          -0.283

Hi there! I need abundance fitness for each item below, if you can.
1. E40K
2. N17T
3. F36Q
4. E63F
5. L47E
6. N71I
7. N48W

Key:
0.347
-0.842
-0.705
-0.866
-0.765
-0.117
-0.775

Hi there! I need abundance fitness for each item below, if you can.
1. Y30N
2. N48I
3. D11T
4. P23Q

Key:
1. -0.833
2. -0.985
3. -0.818
4. -0.017

Hi there! I need abundance fitness for each item below, if you can.
1. E42V
2. E67A
3. L47Q
4. D11M
5. F27H

Key:
[-0.302, -0.082, -0.805, -0.97, 0.246]

Hi there! I need abundance fitness for each item below, if you can.
1. L12K
2. D69A

Key:
1: -0.99; 2: -0.386

Hi there! I need abundance fitness for each item below, if you can.
1. E53A
2. V9T
3. K37Y

Key:
1: -0.089; 2: -0.701; 3: -1.11

Hi there! I need abundance fitness for each item below, if you can.
1. H21W
2. P23H
3. G29A

Key:
-0.248
-0.243
-0.806

Hi there! I need abundance fitness for each item below, if you can.
1. K19F
2. V57W
3. V9W

Key:
-0.654
-0.397
-1.05
